- study_system: HCV NS3 helicase (Hepatitis C virus genotype 1b, UniProt P26663)
- Construct: full-length NS3 (1-631), purified at Array BioPharma
- Sequence (P26663 1027-1657): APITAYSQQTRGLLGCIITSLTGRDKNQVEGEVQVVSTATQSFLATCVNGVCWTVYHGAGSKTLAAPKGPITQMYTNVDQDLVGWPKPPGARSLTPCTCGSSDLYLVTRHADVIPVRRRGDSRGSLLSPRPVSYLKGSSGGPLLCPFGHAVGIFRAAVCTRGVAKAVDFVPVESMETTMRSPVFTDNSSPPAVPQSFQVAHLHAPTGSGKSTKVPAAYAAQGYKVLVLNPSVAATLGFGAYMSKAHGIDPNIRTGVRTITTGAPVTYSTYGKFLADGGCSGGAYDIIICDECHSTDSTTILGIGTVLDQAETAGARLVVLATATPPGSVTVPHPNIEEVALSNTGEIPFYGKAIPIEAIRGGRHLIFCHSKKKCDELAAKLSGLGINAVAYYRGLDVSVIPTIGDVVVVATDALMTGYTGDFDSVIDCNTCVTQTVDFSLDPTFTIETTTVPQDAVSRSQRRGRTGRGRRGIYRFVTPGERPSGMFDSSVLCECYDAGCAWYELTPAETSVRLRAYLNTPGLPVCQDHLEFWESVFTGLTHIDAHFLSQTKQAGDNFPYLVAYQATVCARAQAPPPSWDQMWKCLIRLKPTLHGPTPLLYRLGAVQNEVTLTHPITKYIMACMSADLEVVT
- test_summary: HCV Helicase Prompt FRET Assay (Example A)
- Type: biochemical
- experimental_context: HCV NS3 helicase; tables do not say whether Example A or Example B assay; read-out: IC50 Activity
pIC50: −log10 of the molar value.
Reported pIC50 is given for each of the following compounds.

| compound | measurement_name | value |
| --- | --- | --- |
| O=C(O)Cc1cn(Cc2ccc(Oc3ccccc3C(F)(F)F)cc2)c2ccccc12 [Example 502] | pIC50 | > 5.00 |

stdin: Annotate the compound CC(C)c1ccc(Cn2c(C(=O)NCc3ccc(S(C)(=O)=O)cc3)c(CC(=O)O)c3cc(Br)ccc32)cc1 [Example 443] with its measured pIC50.
stdout: > 5.00

stdin: Annotate the compound O=C(O)Cc1c(C(=O)c2ccc(-c3ccccc3Cl)cc2)[nH]c2ccc(Br)cc12 [Example 275] with its measured pIC50.
stdout: > 5.00

stdin: Annotate the compound O=[N+]([O-])c1ccc(-n2cc(CP(=O)(O)O)c3cc(Br)ccc32)nc1 [Example 317] with its measured pIC50.
stdout: > 5.00

stdin: Annotate the compound CCc1cc2cc(-n3cc(CC(=O)O)c4ccccc43)ccc2s1 [Example 149] with its measured pIC50.
stdout: > 5.00

stdin: Annotate the compound Cc1cc([N+](=O)[O-])ccc1-n1cc(CC(=O)O)c2cccnc21 [Example 319] with its measured pIC50.
stdout: < 4.30

stdin: Annotate the compound O=C(O)Cc1cn(Cc2cccc(Oc3ccccc3F)c2)c2ccccc12 [Example 472] with its measured pIC50.
stdout: > 5.00

stdin: Annotate the compound COC(=O)C(NC(=O)c1c[nH]cn1)c1cn(Cc2ccc(C(C)C)cc2)c2ccccc12 (centres unmarked) [Example 421] with its measured pIC50.
stdout: < 4.30
